Study System: Mu-type opioid receptor (Mus musculus, UniProt P42866)
Sequence (P42866 whole entry): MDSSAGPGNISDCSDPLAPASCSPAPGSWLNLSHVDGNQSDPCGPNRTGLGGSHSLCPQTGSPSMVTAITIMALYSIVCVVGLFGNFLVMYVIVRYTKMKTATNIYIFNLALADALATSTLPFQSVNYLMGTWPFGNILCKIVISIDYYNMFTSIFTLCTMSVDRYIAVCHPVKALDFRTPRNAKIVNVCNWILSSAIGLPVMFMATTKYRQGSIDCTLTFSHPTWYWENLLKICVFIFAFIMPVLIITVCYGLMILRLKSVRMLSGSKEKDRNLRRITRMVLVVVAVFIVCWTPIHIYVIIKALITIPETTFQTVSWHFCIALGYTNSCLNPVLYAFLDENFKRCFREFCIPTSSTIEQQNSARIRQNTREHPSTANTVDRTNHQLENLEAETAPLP
Parameter: pKi
Keep in mind that pKi stands for -log10 of concentration in molar terms.

Cc1nnc(C(C)C)n1[C@H]1C[C@H]2CC[C@@H](C1)N2CC[C@H](NC(=O)C1CCC(F)(F)CC1)c1ccc(NC(=O)COCC(=O)NCCCCCCCCCNC(=O)COCC(=O)N[C@@H]2CC[C@@]3(O)[C@H]4Cc5ccc(O)c6c5[C@@]3(CCN4CC3CC3)[C@H]2O6)cc1 = 8.19

Measured pKi of Cc1nnc(C(C)C)n1[C@H]1C[C@H]2CC[C@@H](C1)N2CC[C@H](NC(=O)C1CCC(F)(F)CC1)c1ccc(NC(=O)COCC(=O)NCCCCCCCNC(=O)COCC(=O)N[C@@H]2CC[C@@]3(O)[C@H]4Cc5ccc(O)c6c5[C@@]3(CCN4CC3CC3)[C@H]2O6)cc1 : 8.49

pKi measured on CNC(=O)COCC(=O)NCCCCCNC(=O)COCC(=O)N[C@@H]1CC[C@@]2(O)[C@H]3Cc4ccc(O)c5c4[C@@]2(CCN3CC2CC2)[C@H]1O5 = 9.11

Lab note: measured pKi of CNC(=O)COCC(=O)NCCCCCCCNC(=O)COCC(=O)N[C@@H]1CC[C@@]2(O)[C@H]3Cc4ccc(O)c5c4[C@@]2(CCN3CC2CC2)[C@H]1O5 was 8.04
